assayed_target: High affinity cGMP-specific 3',5'-cyclic phosphodiesterase 9A (Homo sapiens, UniProt O76083)
Sequence (O76083 whole entry): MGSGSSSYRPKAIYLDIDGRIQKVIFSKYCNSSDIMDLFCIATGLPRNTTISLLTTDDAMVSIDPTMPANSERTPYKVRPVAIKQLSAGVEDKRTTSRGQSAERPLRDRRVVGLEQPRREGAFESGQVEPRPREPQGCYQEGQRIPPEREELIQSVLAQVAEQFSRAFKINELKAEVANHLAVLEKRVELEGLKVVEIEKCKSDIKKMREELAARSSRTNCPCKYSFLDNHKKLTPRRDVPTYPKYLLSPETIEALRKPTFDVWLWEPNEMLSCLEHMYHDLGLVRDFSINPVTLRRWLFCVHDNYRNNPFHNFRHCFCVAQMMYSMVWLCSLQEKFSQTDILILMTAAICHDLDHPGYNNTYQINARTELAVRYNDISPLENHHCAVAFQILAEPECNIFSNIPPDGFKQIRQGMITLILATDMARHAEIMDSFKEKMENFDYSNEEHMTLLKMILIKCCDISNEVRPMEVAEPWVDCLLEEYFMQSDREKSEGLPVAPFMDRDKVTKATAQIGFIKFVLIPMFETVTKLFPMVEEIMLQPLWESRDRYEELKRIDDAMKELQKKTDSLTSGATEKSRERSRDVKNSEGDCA
pIC50: −log10 of the molar value.
measure: pIC50

## Task Need pIC50, item `CC(C)CCn1c2c(c3c(O)cc(O)cc31)CCn1c-2nc2ccccc2c1=O`
## Result < 3.30
